measured on: ADRA2C (Homo sapiens)
Sequence (P18825 1-462): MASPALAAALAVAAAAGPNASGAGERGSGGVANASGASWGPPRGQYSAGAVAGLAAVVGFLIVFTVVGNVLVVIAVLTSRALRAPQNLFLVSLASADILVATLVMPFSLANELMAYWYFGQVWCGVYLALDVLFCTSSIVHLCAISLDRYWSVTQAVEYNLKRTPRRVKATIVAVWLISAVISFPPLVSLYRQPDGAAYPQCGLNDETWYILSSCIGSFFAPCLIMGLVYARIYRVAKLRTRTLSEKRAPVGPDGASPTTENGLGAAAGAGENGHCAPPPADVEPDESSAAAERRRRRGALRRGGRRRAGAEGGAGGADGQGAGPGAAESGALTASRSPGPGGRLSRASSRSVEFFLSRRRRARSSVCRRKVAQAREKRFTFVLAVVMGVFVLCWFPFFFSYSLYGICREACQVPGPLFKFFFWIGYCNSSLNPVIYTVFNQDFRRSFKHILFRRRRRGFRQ
test: PathHunter β-arrestin assay, antagonist mode
test settings: dose-response, antagonist mode
assay metric: pIC50
Please keep in mind that pIC50 is minus log10 of the molar concentration; only the number is needed.

What value of pIC50 has been recorded for this entry: COc1cc2ccnc3c2c(c1OC)NC=C3 [aaptamine] 4.92

* * *

measured on: purified 20S proteasome from human erythrocytes (Homo sapiens, UniProt P28074)
Construct: purified 20S proteasome from human erythrocyte; purchased Enzo Life Sciences; host or cells: human erythrocytes (tissue-purified)
test: 20S proteasome chymotrypsin-like activity assay (Suc-LLVY-AMC)
Format: biochemical
test settings: read-out: IC50 proteasome inhibition in vitro
assay metric: IC50

What value of IC50 has been recorded for this entry: COc1cc2ccnc3c2c(c1OC)NC=C3 ~50 µM

* * *

measured on: ADRB2 (Homo sapiens, UniProt P07550)
Sequence (P07550 whole entry): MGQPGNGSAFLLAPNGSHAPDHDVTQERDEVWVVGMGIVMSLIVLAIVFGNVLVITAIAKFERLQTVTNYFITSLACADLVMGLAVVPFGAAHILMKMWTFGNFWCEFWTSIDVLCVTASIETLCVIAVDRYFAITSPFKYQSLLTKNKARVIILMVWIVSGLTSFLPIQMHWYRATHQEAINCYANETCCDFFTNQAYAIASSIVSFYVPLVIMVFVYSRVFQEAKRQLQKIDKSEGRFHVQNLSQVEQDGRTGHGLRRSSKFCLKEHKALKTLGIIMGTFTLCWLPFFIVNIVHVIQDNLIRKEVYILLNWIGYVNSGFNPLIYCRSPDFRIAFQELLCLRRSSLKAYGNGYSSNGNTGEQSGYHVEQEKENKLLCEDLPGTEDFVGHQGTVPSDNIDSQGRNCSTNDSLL
test: PathHunter β-arrestin assay, antagonist mode
test settings: dose-response, antagonist mode
assay metric: IC50 (nM)
Output spec: scalar in nM, unitless text.

What value of IC50 has been recorded for this entry: COc1cc2ccnc3c2c(c1OC)NC=C3 200

* * *

measured on: ADRA2A (Homo sapiens, UniProt P08913)
Sequence (P08913 1-465): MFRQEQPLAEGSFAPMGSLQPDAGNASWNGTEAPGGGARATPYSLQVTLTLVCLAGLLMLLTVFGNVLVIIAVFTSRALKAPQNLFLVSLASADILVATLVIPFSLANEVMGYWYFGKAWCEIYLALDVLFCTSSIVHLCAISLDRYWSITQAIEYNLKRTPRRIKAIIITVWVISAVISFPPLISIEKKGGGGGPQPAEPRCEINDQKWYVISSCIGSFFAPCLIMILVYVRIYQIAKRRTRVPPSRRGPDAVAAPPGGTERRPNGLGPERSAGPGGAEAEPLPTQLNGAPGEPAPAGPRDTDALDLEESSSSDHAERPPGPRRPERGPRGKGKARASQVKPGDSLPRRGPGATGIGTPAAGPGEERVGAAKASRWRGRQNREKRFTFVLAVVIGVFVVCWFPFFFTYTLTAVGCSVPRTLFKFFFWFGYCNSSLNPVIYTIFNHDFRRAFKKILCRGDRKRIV
test: PathHunter β-arrestin assay, antagonist mode
test settings: dose-response, antagonist mode
assay metric: pIC50
Please keep in mind that pIC50 is minus log10 of the molar concentration; only the number is needed.

What value of pIC50 has been recorded for this entry: COc1cc2ccnc3c2c(c1OC)NC=C3 [aaptamine] 4.25
